Target: Tyrosine-protein phosphatase non-receptor type 1 (Homo sapiens)
Sequence (whole entry): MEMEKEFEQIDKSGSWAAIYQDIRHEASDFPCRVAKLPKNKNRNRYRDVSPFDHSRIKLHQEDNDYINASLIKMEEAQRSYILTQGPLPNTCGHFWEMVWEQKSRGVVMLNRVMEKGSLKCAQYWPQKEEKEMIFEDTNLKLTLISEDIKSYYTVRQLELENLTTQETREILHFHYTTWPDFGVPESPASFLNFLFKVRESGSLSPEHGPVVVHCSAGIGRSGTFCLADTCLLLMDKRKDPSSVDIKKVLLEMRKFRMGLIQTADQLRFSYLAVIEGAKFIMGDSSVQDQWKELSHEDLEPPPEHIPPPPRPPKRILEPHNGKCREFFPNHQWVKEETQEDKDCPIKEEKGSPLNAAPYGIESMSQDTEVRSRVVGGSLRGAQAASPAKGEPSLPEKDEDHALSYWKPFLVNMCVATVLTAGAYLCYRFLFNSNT
Experiment: Inhibitory activity against human protein tyrosine phosphatase 1B (PTP1B) at a concentration of 10 uM
parameter measured: inhibition (%)

Please review the entries below; each comes with its answer.
INSERT INTO results (chemical_structure, endpoint_result) VALUES
  ('CCCCCNC(=O)[C@H](Cc1ccc(OCC(=O)O)c(C(=O)O)c1)NC(=O)[C@H](Cc1ccccc1)NC(=O)CCc1ccccc1', 74),
  ('CCCCCNC(=O)[C@H](Cc1ccc(OCC(=O)O)c(C(=O)O)c1)NC(=O)[C@H](Cc1ccccc1)NC(=O)Cc1ccc(C(F)(F)F)cc1', 85),
  ('CCCCCNC(=O)[C@H](Cc1ccc(OC(C(=O)O)C(=O)O)cc1)NC(=O)[C@H](CC(N)=O)NC(=O)OC(C)(C)C', 40),
  ('CCCCCNC(=O)[C@H](Cc1ccc(OCC(=O)O)c(C(=O)O)c1)NC(=O)[C@H](Cc1ccccc1)NC(=O)CCNS(C)(=O)=O', 73),
  ('CCCCCNC(=O)[C@H](Cc1ccc(OC(C(=O)O)C(=O)O)cc1)NC(=O)[C@H](CC1CCCCC1)NC(=O)OC(C)(C)C', 18),
  ('CCCCCNC(=O)[C@H](Cc1ccc(OC(C(=O)O)C(=O)O)cc1)NC(=O)[C@H](Cc1ccccc1)NC(=O)CCNC(=O)OC(C)(C)C', 62);

I: CCCCCNC(=O)[C@H](Cc1ccc(OCC(=O)O)c(C(=O)O)c1)NC(=O)[C@H](Cc1ccccc1)NC(=O)CCCO
II: CCCCCNC(=O)[C@H](Cc1ccc(OC(C(=O)O)C(=O)O)cc1)NC(=O)[C@H](CSCc1ccccc1)NC(=O)OC(C)(C)C
Which of the two items, I and II , has the greater recorded inhibition? In your reply, give the label of the chosen option.
I

I: CCCCCNC(=O)[C@H](Cc1ccc(OCC(=O)O)c(C(=O)O)c1)NC(=O)[C@H](Cc1ccccc1)NC(=O)CCCc1ccccc1
II: CCCCCNC(=O)[C@H](Cc1ccc(OC(C(=O)O)C(=O)O)cc1)NC(=O)[C@H](Cc1ccccc1)NS(C)(=O)=O
Which of the two items, I and II , has the greater recorded inhibition? In your reply, give the label of the chosen option.
I
(I: 70%, II: 40%)

Hello, the source for this data is ChEMBL document CHEMBL1136635, in case you need it.
